ASSAY_REMARKS: Pharmacokinetic and in vivo leakage studies
RUN_CONDITIONS: mouse, iv; plasma, 1 mg/kg i.v., ICR mice
VALUE_KIND: AUC (ng·h/mL)
Answer format: numeric, ng·h/mL implied, no suffix.

Please list AUC recorded for the compound CC[C@@]1(O)C(=O)OCc2c1cc1n(c2=O)Cc2cc3c(CN(C)C)c(O)ccc3nc2-1 [Free]
1970

---

ASSAY_REMARKS: Pharmacokinetic and in vivo leakage studies
RUN_CONDITIONS: mouse, iv; plasma, 1 mg/kg i.v., ICR mice
VALUE_KIND: Cmax
Numeric answer plus unit only.

Give Cmax for CC[C@@]1(O)C(=O)OCc2c1cc1n(c2=O)Cc2cc3c(CN(C)C)c(O)ccc3nc2-1 [Free]
750 ng/mL

---

ASSAY_REMARKS: Pharmacokinetic and in vivo leakage studies
RUN_CONDITIONS: mouse, iv; plasma, 5 mg/kg i.v., ICR mice
VALUE_KIND: clearance (mL/min)
The reply should be a number in mL/min, with the unit left off.

Write down clearance measured for item CC[C@@]1(O)C(=O)OCc2c1cc1n(c2=O)Cc2cc3c(CN(C)C)c(O)ccc3nc2-1 [Free]
0.827
